These entries and their values trace back to patent US20250161473A1.

Molecular target: T1, TROP-2-his (UniProt P09758 27-274)
T1 construct: also called antigen TROP-2-his; not shown: his tag
T1 sequence (looked up): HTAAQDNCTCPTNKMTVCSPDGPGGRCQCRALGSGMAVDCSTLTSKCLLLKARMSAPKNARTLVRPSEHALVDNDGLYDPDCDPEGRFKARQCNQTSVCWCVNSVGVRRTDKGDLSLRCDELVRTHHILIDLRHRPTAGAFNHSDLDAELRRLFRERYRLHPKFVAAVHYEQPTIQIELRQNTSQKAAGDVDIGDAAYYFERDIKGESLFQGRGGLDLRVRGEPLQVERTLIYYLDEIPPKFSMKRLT
Experiment: SPR (Biacore), ADC captured on Protein A chip, TROP-2-his flowed over, 1:1 Langmuir fit
From the text: In this test example, the affinity of the TROP-2 antibody and the TROP-2-ADC compound obtained according to the above examples to TROP-2 is detected by means of capturing antibody. Use the Sensor Chip Protein A biosensor chip (Cytiva) to capture the antibody (TROP-2 antibody or TROP-2-ADC compound), then flow through the antigen TROP-2-his on the surface of the chip, and use the Biacore K8 instrument (Cytiva) Real-time detection of reaction signals to obtain association and dissociation curves. […]
Please go through the items and note down their pKd.
Give bare numbers, as −log10 of the molar value.

TROP-2-ADC-21 (antibody, human IgG1, kappa, V domains shown, drug-linker compound 68 coupled to cysteines of the reduced interchain disulfide bonds; positions not given; drug-linker compound 68 (maleimide linker, exatecan derivative) coupled to cysteines of the reduced interchain disulfide bonds; positions not given; DAR 4.78 for the whole antibody) VH: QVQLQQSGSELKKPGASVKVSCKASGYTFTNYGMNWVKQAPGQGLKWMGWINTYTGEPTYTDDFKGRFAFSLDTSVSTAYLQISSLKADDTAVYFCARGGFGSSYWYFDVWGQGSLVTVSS VL: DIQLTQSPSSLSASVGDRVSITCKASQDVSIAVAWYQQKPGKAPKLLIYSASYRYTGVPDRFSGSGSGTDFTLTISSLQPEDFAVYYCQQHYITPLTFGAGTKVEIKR :: 9.56
TROP-2-ADC-23 (antibody, human IgG1, kappa, V domains shown, drug-linker compound 70 coupled to cysteines of the reduced interchain disulfide bonds; positions not given; drug-linker compound 70 (maleimide linker, exatecan derivative) coupled to cysteines of the reduced interchain disulfide bonds; positions not given; DAR 6.42 for the whole antibody) VH: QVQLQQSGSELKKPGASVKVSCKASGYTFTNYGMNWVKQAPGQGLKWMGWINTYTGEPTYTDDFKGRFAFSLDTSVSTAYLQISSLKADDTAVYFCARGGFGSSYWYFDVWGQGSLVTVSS VL: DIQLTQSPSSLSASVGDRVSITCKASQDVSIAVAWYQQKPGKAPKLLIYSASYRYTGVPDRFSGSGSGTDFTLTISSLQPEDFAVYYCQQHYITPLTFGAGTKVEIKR :: 9.58
TROP-2-ADC-3 (antibody, human IgG1, kappa, V domains shown, drug-linker compound 50 coupled to cysteines of the reduced interchain disulfide bonds; positions not given; drug-linker compound 50 (maleimide linker, exatecan derivative) coupled to cysteines of the reduced interchain disulfide bonds; positions not given; DAR 14.74 for the whole antibody) VH: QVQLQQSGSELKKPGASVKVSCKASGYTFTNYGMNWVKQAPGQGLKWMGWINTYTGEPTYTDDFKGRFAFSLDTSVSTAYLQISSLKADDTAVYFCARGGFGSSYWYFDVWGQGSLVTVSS VL: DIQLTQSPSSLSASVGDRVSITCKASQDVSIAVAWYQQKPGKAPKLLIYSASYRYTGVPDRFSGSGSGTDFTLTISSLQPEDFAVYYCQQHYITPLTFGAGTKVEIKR :: 9.56

In the following, a different binder is considered.
Please report the measured pKd for TROP-2-ADC-4 (antibody, human IgG1, kappa, V domains shown, drug-linker compound 51 coupled to cysteines of the reduced interchain disulfide bonds; positions not given; drug-linker compound 51 (maleimide linker, exatecan derivative) coupled to cysteines of the reduced interchain disulfide bonds; positions not given; DAR 8.49 for the whole antibody) VH: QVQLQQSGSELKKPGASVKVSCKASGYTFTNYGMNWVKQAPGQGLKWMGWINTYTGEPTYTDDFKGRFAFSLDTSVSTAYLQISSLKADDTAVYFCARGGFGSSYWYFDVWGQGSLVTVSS VL: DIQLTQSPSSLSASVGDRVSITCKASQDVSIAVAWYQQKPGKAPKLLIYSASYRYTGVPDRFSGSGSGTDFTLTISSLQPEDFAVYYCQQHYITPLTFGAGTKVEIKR 9.53
